System: DLD-1 colon
EXPERIMENT SUMMARY: NCI tumour cell line growth inhibition, 48 h
RESULT TYPE: TGI

Record excerpt, results attached:
>>> experimental_result("CCOC(=O)N1CCc2cc(OC)c(OC)cc2/C1=C/c1ccc(OC)c(OC)c1")
"> 100 µM"
>>> experimental_result("Cc1cc(Cl)ccc1N1C(=O)C(=O)C(c2nc3ccccc3o2)C(=O)C1=O")
"> 100 µM"
>>> experimental_result("C/C(CC(=O)Nc1ccccc1)=N\\NC(N)=S")
"> 100 µM"
>>> experimental_result("NC1=NCC(c2ccccn2)C1c1ccc(F)cc1 (stereo unspecified)")
"> 100 µM"
>>> experimental_result("Cc1cccc2cc3cccc(C(=O)NCCN(C)C)c3nc12")
"5.11 µM"

Proceeding to the next molecule to report its TGI.
**Query** State its TGI: "COc1ccc(-c2cc(=O)c3ccc(F)cc3[nH]2)cc1"
**Result** > 100 µM

----------
Test system: LOX IMVI melanoma
EXPERIMENT SUMMARY: NCI tumour cell line growth inhibition, 48 h; in the data active = GI50 below about 0.43 µM; inactive = the rest
Entry note: the call must match one of yes (1) (active), no (0) (inactive)

Examples with answers:
>>> category_label("CNC(C)[C@H]1CCC2C3CCC4C[C@@H](N(C)C(=O)c5ccccc5)CC[C@]4(C)C3CC[C@@]21C (stereo partly drawn)")
"yes (1)"
>>> category_label("NC(=S)N/N=C/c1ccc(OC(=O)COc2ccccc2)cn1")
"no (0)"
>>> category_label("CC(=O)N1N=C(c2ccc(Nc3nc(Nc4ccc(F)cc4)nc(Nc4ccc(Cl)cc4)n3)cc2)CC1c1ccc(N(C)C)cc1 (stereo not drawn)")
"no (0)"
>>> category_label("C[n+]1cc2cc3c(cc2c2ccccc21)OCO3")
"no (0)"
>>> category_label("COc1cc2c(c(OC)c1OC)C(=O)c1c-2n(CCCN=[N+]=[N-])c(=O)c2cc([N+](=O)[O-])ccc12")
"no (0)"
>>> category_label("CC(=O)Oc1ccccc1C(=O)NCCC[Se]C#N")
"no (0)"

**Query** Would you mind telling me which call this test gave "CCOC(=O)Nc1ccc(C(=O)/C=C/c2ccccc2)cc1" ?
**Result** no (0)

**Query** Would you mind telling me which call this test gave "C=C(CN(C)Cc1ccccc1)c1ccc(C(=O)Nc2ccccc2N)cc1" ?
**Result** no (0)

**Query** Would you mind telling me which call this test gave "CCOc1ccc2c(c1)C(=O)c1c-2n(CCCN)c(=O)c2cc([N+](=O)[O-])ccc12" ?
**Result** yes (1)

**Query** Would you mind telling me which call this test gave "CCOc1ccc(NC(=O)c2cc3ccccc3cc2O)cc1" ?
**Result** no (0)

**Query** Would you mind telling me which call this test gave "O=C([CH-]C(=O)c1ccccc1)c1ccccc1.[CH3-].[CH3-].[CH3-].[Sn+4]" ?
**Result** no (0)

**Query** Would you mind telling me which call this test gave "O=C(c1ccccc1)c1ccc(O)c2ncccc12" ?
**Result** no (0)

**Query** Would you mind telling me which call this test gave C[CH2][Ge]([CH2]C)([CH2]C)[O]C(=O)C([O][Ge]([CH2]C)([CH2]C)[CH2]C)c1ccccc1 (stereo not drawn) ?
**Result** no (0)

----------
Test system: BT-549 breast
EXPERIMENT SUMMARY: NCI tumour cell line growth inhibition, 48 h
RESULT TYPE: TGI (µM)
Expressed in µM, but write only the number.

>>> experimental_result("C=C(CN(C)Cc1ccccc1)c1ccc(C(=O)Nc2ccccc2N)cc1")
10.1

**Query** Fill: TGI (BT-549 breast) for this compound "COc1ccc(OC)c([N+](=O)[O-])c1-c1nc2sc(C)c(C)n2c1/C=N/N=C(N)N"
**Result** 57.7

These entries and their values trace back to PubChem BioAssay (NCI).
